Test system: HCT-15 colon
Test: NCI-60 one-dose screen, 48 h (100 = growth as untreated, 0 = no growth, -100 = all killed)
Conditions: 10 µM unless noted
This is part of a sample that, as a whole, favours compounds with a hit. Of some 83,000 tested, about 20% had one in any assay.
Each entry below carries its reported growth.
Property Name: growth (%)

> print(dat)
                                   compound  observed.measurement
1  COc1cccc(/C=C2\COc3ccc(-c4ccccc4)cc3C2=O)c1                 -36.9
2  Clc1nc(Cl)c2ncn(CCOCCn3cnc4c(Cl)nc(Cl)nc43)c2n1                 -78.7
3  COc1cc(C(=O)/C=C/c2c(C)n([O-])c3ccc(Cl)cc3[n+]2=O)cc(OC)c1OC                  29.6
4  N#CSCC1CC(O)(c2ccccc2)C(c2ccccc2)C(c2ccc(F)cc2)O1 (stereo not given)                  42.6
5  COc1ccc(C2CC(n3nnnc3-c3ccccc3)=NN2)cc1 (stereo not given)                  52.4

###

System: HCT-15 colon
Assay: NCI-60 one-dose screen, 48 h (100 = growth as untreated, 0 = no growth, -100 = all killed)
Details: 10 µM unless noted
The panel holds about 83,000 compounds, 20% with a hit somewhere; the sample as a whole holds those more often. Activity calls are given as the source filed them. Rule for the calls: active = growth percent below 10; inactive = the rest.
Each entry below carries its reported growth.
Property Name: growth

> print(dat)
                                 smiles.str  property.name  observed.measurement
1  O=S(=O)(NCCCNc1nccc(-c2c(-c3ccc(F)c(O)c3)nc3sccn23)n1)c1ccc(F)cc1         growth        6.51% (active)
2  Cc1[nH]n(-c2cccc(Cl)c2)c(=O)c1/C=C1\C=Nc2ccc(Br)cc21         growth      59.2% (inactive)
3  COc1cc2nc(-c3ccc(C(F)(F)F)cc3)cc(OCCCN3CCCCC3)c2cc1OC         growth        9.99% (active)
4  CN1CCN(C(=O)[C@]2(C)CC[C@]3(C)CC[C@]4(C)C(=CC(=O)[C@@H]5[C@@]6(C)CCC(=O)NC(C)(C)[C@@H]6CC[C@]54C)[C@@H]3C2)CC1         growth      94.6% (inactive)
5  O=C(CSc1nc2sc3c(c2c(=O)n1Cc1ccccc1)CCCC3)N1CCN(c2ccccc2)CC1         growth      94.8% (inactive)

###

Tested on: HS 578T breast
Assay: NCI-60 one-dose screen, 48 h
Conditions: 10 µM unless noted
This is part of a sample that, as a whole, favours compounds with a hit. Of some 83,000 tested, about 20% had one in any assay. Calls of active or inactive are those of the source. The calls were made as follows: active = growth percent below 10; inactive = the rest.
Outcome codes: y (active), n (inactive)

> print(dat)
                                 smiles.str  category
1  O=C(CCN1CCCC1)Nc1ccc2c(Nc3ccccc3)c3ccccc3nc2c1         n
2  O=C(OCc1nc2nc(Cl)nc(N3CCOCC3)c2[nH]1)n1ccnc1         y
3  N#Cc1ccc(-c2ccc3c(c2)NC(=O)/C3=C\c2ccc[nH]2)cc1         n
4  O=C(Nc1ccc(F)cc1)c1c(NC(=O)C(F)(F)F)sc2c1CCCCC2         y
5  C[C@H]1[C@H](C)CC[C@]2(CO)CC[C@]3(C)C(=CC[C@@H]4[C@@]5(C)Cc6c([nH]c7ccccc67)C(C)(C)[C@@H]5CC[C@]43C)[C@H]12         n

###

Tested on: 786-0 renal
Experiment: NCI-60 one-dose screen, 48 h
Conditions: 10 µM unless noted
About 83,000 compounds went through this panel and 20% of them were active in at least one assay; those are over-represented in the sample as a whole. Activity calls are given as the source filed them. How the source made its calls: active means growth percent below 10; inactive means the rest.
Outcome codes: 1.0 = active, 0.0 = inactive

> print(dat)
                                   compound  category
1  O=C(Nc1ccc(Nc2ncccn2)cc1)NC1C=c2ccccc2=CC1 (stereo not given)       0.0
2  Brc1ccc(C2CC(c3cccc(Nc4ccncc4)c3)=NN2c2ccccc2)cc1 (stereo not given)       0.0
3      COc1ccc(-c2ncc(-c3ccccc3)[nH]2)cc1OC       1.0
4  CCCCN(CCCC)CCc1c(C)cc(C)c(CCN(CCCC)CCCC)c1O       0.0
5  COc1ccc(CC(C)=C(c2ccc(OCCN(C)C)cc2)c2ccc(OCCN(C)C)cc2)cc1       0.0

###

Each entry below carries its reported growth.
Tested on: NCI-H226 lung
Assay: NCI-60 one-dose screen, 48 h (100 = growth as untreated, 0 = no growth, -100 = all killed)
Settings: 10 µM unless noted
The panel holds about 83,000 compounds, 20% with a hit somewhere; the sample as a whole holds those more often.
Property Name: growth (%)

> print(dat)
                                 smiles.str   study.system  property.name  observed.measurement
1  O=C(N/N=C/c1cccc(O)c1)c1ccccc1Nc1cccc(C(F)(F)F)c1  NCI-H226 lung         growth                  76.7
2  COc1cc(-c2cc(=O)oc3cc(O)ccc23)cc(OC)c1OC  NCI-H226 lung         growth                  87.3
3  CCCCc1ccc(Nc2nnc(SCC(=O)NC(=O)NCC)s2)cc1  NCI-H226 lung         growth                  95.7
4     COc1cc(NCCCN(CC(C)C)CC(C)C)c2ncccc2c1  NCI-H226 lung         growth                  97.8
5  COc1c(Cl)cc(Cl)c2ccc(C=C3C(=O)N(C)C(=O)N(C)C3=O)nc12  NCI-H226 lung         growth                   100
6  C#CCn1cc(C=C2C(=O)NC(=S)NC2=O)c2cc(Cl)ccc21  NCI-H226 lung         growth                  61.6

###

Each entry below carries its reported growth.
Test system: T-47D breast
Assay: NCI-60 one-dose screen, 48 h (100 = growth as untreated, 0 = no growth, -100 = all killed)
Conditions: 10 µM unless noted
Method: Growth inhibition of the T-47D human tumor cell line is measured as a screen for anti-cancer activity. Cells are grown in 96 well plates and exposed to the test compound for 48 hours. Compounds are tested at a single concentration, which is 10^-5 M for most compounds. The reported endpoint is percent growth (GI% or GIPRCNT), where numbers from 0 - 100% represent growth inhibition, and numbers from -100% - 0 represent cell death. For example, a value of 40 represents 60% growth inhibition. […]
Compounds without any hit were thinned out: in the full panel of roughly 83,000, 20% have a hit.
Property Name: growth (%)

> print(dat)
                                    compound  study.system  unit.abbrev  observed.measurement
 1  Cc1cc(Nc2cccc(C(F)(F)F)c2)n2c(nc3ccccc32)c1C#N  T-47D breast            %                  8.68
 2                      Cc1ccc(O)c(C(=O)O)c1  T-47D breast            %                   106
 3  CC(=O)c1c(C)[nH]c(-c2nc3ccc(N4CCN(C)CC4)cc3[nH]2)c1-c1ccccc1  T-47D breast            %                  20.3
 4  COc1ccc(NC(=O)c2sc3nc(C)c(C(=O)CCc4cccc(OC)c4)cc3c2N)cc1  T-47D breast            %                  67.6
 5  COc1ccc(-c2nc(N/N=C/c3cccc(Br)c3)nc(N3CCOCC3)c2C#N)cc1  T-47D breast            %                    77
 6  COc1cc(C2NC(c3cc(OC)c(OC)c(OC)c3)C(C#N)(C#N)C2(C#N)C#N)cc(OC)c1OC (stereo not given)  T-47D breast            %                  96.4
 7  COc1cc(C(=O)c2cnc(-c3ccc4cc[nH]c4c3)[nH]2)cc(OC)c1OC  T-47D breast            %                    59
 8  O=C(Nc1ccc2cc3ccc(NC(=O)NC4CCCCC4)cc3nc2c1)NC1CCCCC1  T-47D breast            %                  81.9
 9  CC(O)/C=C/C=C/C(O)CC/C=C/C(=O)NCC(C)(C)O (stereo not given)  T-47D breast            %                  86.2
10  CCC1(CC)NC(=O)c2c(c3ccc(Cl)c(Cl)c3n2C)C1C#N (stereo not given)  T-47D breast            %                  78.5

The reported numbers originate from PubChem BioAssay (NCI).
